Below: a set of entries, each annotated with reported hERG current change (%, negative = inhibition) at 10uM.
Molecular target: human ether-à-go-go-related gene (hERG) potassium channel (human, UniProt Q12809);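 further: peak tail current of the secondary pulse compared with the same well before compound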
Sequence (Q12809 whole entry, looked up): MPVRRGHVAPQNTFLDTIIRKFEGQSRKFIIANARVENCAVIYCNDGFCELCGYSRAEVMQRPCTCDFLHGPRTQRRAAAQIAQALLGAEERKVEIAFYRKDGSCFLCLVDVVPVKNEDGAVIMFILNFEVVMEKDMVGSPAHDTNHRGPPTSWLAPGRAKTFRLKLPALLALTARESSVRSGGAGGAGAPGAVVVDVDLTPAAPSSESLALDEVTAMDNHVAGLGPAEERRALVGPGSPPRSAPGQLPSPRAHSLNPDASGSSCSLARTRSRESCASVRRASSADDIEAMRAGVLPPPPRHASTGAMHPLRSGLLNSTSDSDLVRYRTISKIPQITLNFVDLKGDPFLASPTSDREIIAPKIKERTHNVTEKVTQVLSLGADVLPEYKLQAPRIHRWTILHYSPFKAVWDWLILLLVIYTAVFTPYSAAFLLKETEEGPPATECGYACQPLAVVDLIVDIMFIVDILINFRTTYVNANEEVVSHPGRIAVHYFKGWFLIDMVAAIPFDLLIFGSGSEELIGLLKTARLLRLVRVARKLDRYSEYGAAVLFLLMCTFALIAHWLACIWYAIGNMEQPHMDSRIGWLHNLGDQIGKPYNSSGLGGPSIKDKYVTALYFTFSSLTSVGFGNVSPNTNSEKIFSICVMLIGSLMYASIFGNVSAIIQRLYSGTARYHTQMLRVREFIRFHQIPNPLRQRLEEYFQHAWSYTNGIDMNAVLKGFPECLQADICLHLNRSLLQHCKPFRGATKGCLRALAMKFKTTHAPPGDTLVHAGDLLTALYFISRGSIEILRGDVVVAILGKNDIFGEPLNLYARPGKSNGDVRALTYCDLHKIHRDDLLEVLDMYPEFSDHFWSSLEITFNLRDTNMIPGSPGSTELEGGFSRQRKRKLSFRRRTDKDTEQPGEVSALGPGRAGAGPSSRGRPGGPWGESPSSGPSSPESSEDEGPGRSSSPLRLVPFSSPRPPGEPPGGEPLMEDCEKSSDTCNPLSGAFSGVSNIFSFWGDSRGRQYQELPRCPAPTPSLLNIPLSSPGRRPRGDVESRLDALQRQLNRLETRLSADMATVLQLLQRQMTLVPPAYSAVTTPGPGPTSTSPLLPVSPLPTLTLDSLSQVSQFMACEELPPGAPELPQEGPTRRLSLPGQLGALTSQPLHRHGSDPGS
Assay: primary screen, population patch clamp on CHO cells stably expressing hERG; higher = less effect of the substance
The whole screen tested about 310,000 compounds, of which about 14,000 (4.5%) showed an effect of 50% or more. Effects have a minus sign here. The entries come from a sample that favours strong results as a whole.
Experimental Endpoint: hERG current change (%, negative = inhibition) at 10uM (%)

| Molecule | Target System | Meas Value |
| --- | --- | --- |
| CCN(CC)CCn1c(=N)n(CCO)c2ccccc21 | human ether-à-go-go-related gene (hERG) potassium channel (human, UniProt Q12809) | 5.99 |
| COc1cc(OC)cc(-c2cc3nc(C)c(CCC(=O)Nc4nc(C)cs4)c(C)n3n2)c1 | human ether-à-go-go-related gene (hERG) potassium channel (human, UniProt Q12809) | 10 |
| CSCCC(NC(=O)c1ccco1)C(=O)N1CCCCCCC1 (stereo not shown) | human ether-à-go-go-related gene (hERG) potassium channel (human, UniProt Q12809) | -4.39 |
| Cc1cc(C)c(C#N)c(N2CCCC2)n1 | human ether-à-go-go-related gene (hERG) potassium channel (human, UniProt Q12809) | 5.67 |
| COc1ccccc1CN1CC(C(=O)N2CCCCCCC2)CCC1=O (stereo not shown) | human ether-à-go-go-related gene (hERG) potassium channel (human, UniProt Q12809) | 3.22 |
| Cc1cccc(C(=O)NCCC(=O)Nc2ccc(C#N)cc2)c1 | human ether-à-go-go-related gene (hERG) potassium channel (human, UniProt Q12809) | -0.169 |
| c1ccc(Cc2nc3ccccc3[nH]2)cc1 | human ether-à-go-go-related gene (hERG) potassium channel (human, UniProt Q12809) | -6.39 |
| COc1ccc(NC(=O)CO/N=C2/CCCc3nonc32)c(OC)c1 | human ether-à-go-go-related gene (hERG) potassium channel (human, UniProt Q12809) | 11.1 |
| O=S(=O)(NCc1cn2ccsc2n1)c1cccs1 | human ether-à-go-go-related gene (hERG) potassium channel (human, UniProt Q12809) | 15.6 |
| COc1ccccc1-c1cc2nc(C)c(CCC(=O)NCc3ccco3)c(C)n2n1 | human ether-à-go-go-related gene (hERG) potassium channel (human, UniProt Q12809) | -43.1 |
| N#Cc1c(NC(=O)CSc2nnc(-c3ccncc3)n2CC2CCCO2)sc2c1CCCC2 (stereo not shown) | human ether-à-go-go-related gene (hERG) potassium channel (human, UniProt Q12809) | -40.7 |
| COc1ccccc1CCNC(=O)C1CCC(=O)N(Cc2ccccc2OC)C1 (stereo not shown) | human ether-à-go-go-related gene (hERG) potassium channel (human, UniProt Q12809) | -13.2 |
| CSc1nnc(-c2sc3cc(Cl)ccc3c2Cl)n1C | human ether-à-go-go-related gene (hERG) potassium channel (human, UniProt Q12809) | 0.137 |
| CCn1c(SCC(=O)Nc2oc(-c3ccccc3)c(-c3ccccc3)c2C#N)nnc1-c1ccncc1 | human ether-à-go-go-related gene (hERG) potassium channel (human, UniProt Q12809) | -68.2 |
| Cc1cc(NS(=O)(=O)c2ccc(NC(=O)CSc3nc4ncc(Br)cc4[nH]3)cc2)nc(C)n1 | human ether-à-go-go-related gene (hERG) potassium channel (human, UniProt Q12809) | 20.8 |
| COc1ccccc1-c1cc2nc(C)c(CCC(=O)NCc3ccc(F)cc3)c(C)n2n1 | human ether-à-go-go-related gene (hERG) potassium channel (human, UniProt Q12809) | -49.7 |
| CC(=O)Nc1ccccc1OC(=O)N(C)C | human ether-à-go-go-related gene (hERG) potassium channel (human, UniProt Q12809) | 2.41 |
| O=C(CSC1=NCCN1)Nc1ccccc1[N+](=O)[O-] | human ether-à-go-go-related gene (hERG) potassium channel (human, UniProt Q12809) | 11.2 |
| COc1ccccc1CNC(=O)CCc1c(C)nc2cc(-c3ccccc3OC)nn2c1C | human ether-à-go-go-related gene (hERG) potassium channel (human, UniProt Q12809) | -11.5 |
| CCn1c(SC)nnc1-c1nnc(SC)n1CC | human ether-à-go-go-related gene (hERG) potassium channel (human, UniProt Q12809) | -7.09 |
| Cc1nc2cc(-c3cccc(F)c3)nn2c(C)c1CCC(=O)NC(C)CCc1ccco1 (stereo not shown) | human ether-à-go-go-related gene (hERG) potassium channel (human, UniProt Q12809) | -70.6 |
| Cc1cc(=O)oc2ccc(OC(=O)c3cccc(S(=O)(=O)N4CCOCC4)c3)cc12 | human ether-à-go-go-related gene (hERG) potassium channel (human, UniProt Q12809) | -70.5 |
| CCn1c(SCC(=O)Nc2oc(-c3ccccc3)c(-c3ccccc3)c2C#N)nnc1-c1ccco1 | human ether-à-go-go-related gene (hERG) potassium channel (human, UniProt Q12809) | -30.8 |
| Br.CCN(CC)CCn1c(=N)n(CCOc2ccccc2)c2ccccc21 | human ether-à-go-go-related gene (hERG) potassium channel (human, UniProt Q12809) | -53.6 |
| O=C(Nc1cccc(C(=O)N2CCOCC2)c1)c1ccccc1Cl | human ether-à-go-go-related gene (hERG) potassium channel (human, UniProt Q12809) | -17 |
| O=C(CSc1nc2scc(-c3ccccc3)c2c(=O)[nH]1)NCCc1ccccc1 | human ether-à-go-go-related gene (hERG) potassium channel (human, UniProt Q12809) | -1.09 |
| COc1ccccc1CN1CC(C(=O)N2CCCCO2)CCC1=O (stereo not shown) | human ether-à-go-go-related gene (hERG) potassium channel (human, UniProt Q12809) | -65.7 |
| NS(=O)(=O)c1ccc(CCNc2nc(CN3CCCCC3)nc3sc4c(c23)CCC4)cc1 | human ether-à-go-go-related gene (hERG) potassium channel (human, UniProt Q12809) | -72.9 |
| Cc1c(C)c2ccc(OCC(=O)Nc3ccc(N4CCC(C)CC4)cc3)cc2oc1=O | human ether-à-go-go-related gene (hERG) potassium channel (human, UniProt Q12809) | 14.7 |
| Cc1nnc(NC(=O)CN2CCN(Cc3ccc(F)cc3Cl)CC2)s1 | human ether-à-go-go-related gene (hERG) potassium channel (human, UniProt Q12809) | 8.45 |
| Cc1nc(NCCc2ccc(S(N)(=O)=O)cc2)c2c3c(sc2n1)CCC3 | human ether-à-go-go-related gene (hERG) potassium channel (human, UniProt Q12809) | 8.64 |
| COc1ccc(-c2cc3nc(C)c(CCC(=O)NCc4ccc(F)cc4)c(C)n3n2)c(OC)c1 | human ether-à-go-go-related gene (hERG) potassium channel (human, UniProt Q12809) | -60.4 |
| Cc1cc(S(=O)(=O)N2CCC(NC(=O)C34CC5CC(CC(C5)C3)C4)CC2)ccc1-n1cnnn1 | human ether-à-go-go-related gene (hERG) potassium channel (human, UniProt Q12809) | -15.2 |
| Cc1cc(C)cc(Oc2c(C(F)(F)F)oc3cc(OCC(=O)O)ccc3c2=O)c1 | human ether-à-go-go-related gene (hERG) potassium channel (human, UniProt Q12809) | 4.25 |
| Cc1cc(C)c2oc(-c3ccc(C)c(NC(=S)NC(=O)/C=C/c4ccco4)c3)nc2c1 | human ether-à-go-go-related gene (hERG) potassium channel (human, UniProt Q12809) | 11.2 |
| Cc1nc2cc(-c3ccccc3)nn2c(C)c1CCC(=O)NCc1ccco1 | human ether-à-go-go-related gene (hERG) potassium channel (human, UniProt Q12809) | -37.4 |
| CCn1c(SCC(=O)Nc2sc3c(c2C#N)CCCC3)nnc1-c1ccncc1 | human ether-à-go-go-related gene (hERG) potassium channel (human, UniProt Q12809) | -63.5 |
| NS(=O)(=O)c1ccc(CCNc2nc(CN3CCOCC3)nc3sc4c(c23)CCC4)cc1 | human ether-à-go-go-related gene (hERG) potassium channel (human, UniProt Q12809) | -31.2 |
| CCC(=O)Nc1sc2c(c1C#N)CCCCC2 | human ether-à-go-go-related gene (hERG) potassium channel (human, UniProt Q12809) | 0.0585 |
| COc1cc(/C=C/CO)cc(OC)c1OC/C=C(\C)CCC=C(C)C | human ether-à-go-go-related gene (hERG) potassium channel (human, UniProt Q12809) | 1.34 |
